These data points were gathered from patent US12428446B2.

- test: Evaluation of dissolution stability (content change on storage in dissolved state)
- Format: physicochemical
- appliedConditions: 1 mg/1 ml dissolved state, 40° C. and RH 75%, day 7
Where no end group is shown, it is not given here. [ ]: non-standard residue; d: D form. Hyp = O=C(O)[C@@H]1C[C@@H](O)CN1
Would you please tag the item 1 when its Day 7 content (%) is 70% or above, and 0 when it is below?

Before answering, review these 3 worked examples.
Hyp-Gly-Gln-Asp-Ala-Leu ([Hyp]GQDAL) [Example 36] : 1
DGLAGP [Example 31] : 0
Hyp-Leu-Gln-Asp-Gly ([Hyp]LQDG) [Example 75] : 0

Has Hyp-Gly-Gln-Asp-Val-Leu-Ala-Gly ([Hyp]GQDVLAG) [Example 24] a recorded Day 7 content (%) greater than or equal to 70%?
1

---

- test: Evaluation of dissolution stability (content change on storage in dissolved state)
- Type: physicochemical
- appliedConditions: 1 mg/1 ml dissolved state, 40° C. and RH 75%, initial
Primed or numbered codes have the meaning given here. Where no end group is shown, it is not given here. [ ]: non-standard residue; d: D form. Asu′ = aspartimide (aminosuccinimide); Hyp = O=C(O)[C@@H]1C[C@@H](O)CN1
measurementType: Initial content (%)
One number for each entry, in %.

These solved cases illustrate the format of a correct answer.
Hyp-Gly-Gln-Asp-Val-Leu [Example 34] ([Hyp]GQDVL) : 97.18
Hyp-Gly-Gln-Asp-Val ([Hyp]GQDV) [Example 21] : 84.05
Hyp-Gly-Gln-Asu-Gly-Leu-Ala-Gly ([Hyp]GQ[Asu′]GLAG) [Example 103] : 97.09
Hyp-Gly-Gln-Glu-Leu-Leu ([Hyp]GQELL) [Example 88] : 99.23
QLGLAGPK [Example 18] : 82.99

Would you kindly look at the next entry?
Please fill in: Initial content (%) reported for QEGLAG [Example 70] = 92.41

---

- test: Evaluation of dissolution stability (content change on storage in dissolved state)
- Type: physicochemical
- appliedConditions: 1 mg/1 ml dissolved state, 40° C. and RH 75%, day 1
Where no end group is shown, it is not given here. [ ]: non-standard residue; d: D form. Hyp = O=C(O)[C@@H]1C[C@@H](O)CN1
Can you tell me Day 1 content (%) for the items I'm about to list?
Give bare numbers, in %.

Kindly give each listed record's Day 1 content (%).
1. Hyp-Gly-Gln-Glu-Val ([Hyp]GQEV) [Example 91]
2. Hyp-Gly-Gln-Glu-Leu ([Hyp]GQEL) [Example 90]
3. Hyp-Gly-Gln-Asn-Gly-Leu ([Hyp]GQNGL) [Example 81]
4. Hyp-Gly-Gln-Ala-Leu ([Hyp]GQAL) [Example 120]
5. Hyp-Gly-Gln-Asp-Val-Leu-Ala ([Hyp]GQDVLA) [Example 23]

99.10
98.58
93.01
98.87
95.25

---

Exercise: state measured Day 1 content (%) for each of the substances provided.
- test: Evaluation of dissolution stability (content change on storage in dissolved state)
- Format: physicochemical
- appliedConditions: 1 mg/1 ml dissolved state, 40° C. and RH 75%, day 1
Where no end group is shown, it is not given here. [ ]: non-standard residue; d: D form. Pro(4-methylene) = C=C1CN[C@H](C(=O)O)C1; Hyp = O=C(O)[C@@H]1C[C@@H](O)CN1; Aib = CC(C)(N)C(=O)O
Answers are plain numbers, in %.

Consider the worked cases shown below.
Hyp-Gly-Gln-Asp-Ala ([Hyp]GQDA) [Example 33] : 96.68
Hyp-Gly-Gln-Leu-Gly-Leu-Ala-Gly ([Hyp]GQLGLAG) [Example 17] : 96.53
QLGLAGPK [Example 18] : 53.91
Hyp-Gly-Gln-Asp-Val-Leu [Example 34] ([Hyp]GQDVL) : 97.05
Hyp-Gly-Gln-Asp-Gly-Leu ([Hyp]GQDGL) [Example 11] : 91.37

// each listed substance needs a value for Day 1 content (%)
1. Hyp-Gly-Gln-Asp-Leu ([Hyp]GQDL) [Example 32]
2. Hyp-Val-Gln-Asp-Gly ([Hyp]VQDG) [Example 74]
3. Hyp-Gly-Gln-Asp-Gly-Pro-Lys ([Hyp]GQDGPK) [Example 28]
4. Hyp-Gly-Gln-Asp-Aib-Leu-Ala ([Hyp]GQD[Aib]LA) [Example 83]
5. 4-methylene-Pro-Gly-Gln-Asp-Gly-Leu-Ala ([Pro(4-methylene)]GQDGLA) [Example 54]

[96.81, 92.95, 98.50, 95.35, 83.66]
